Target: HLA-B*44:02
Assay: IEDB peptide-MHC binding, purified MHC/direct/fluorescence; filed as Kd, often an IC50 or EC50 that approximates it; bounds were set here for any values at or beyond the usual limits of such assays
Conditions: source organism: Influenza A virus (A/SW/MN/3227/00(H1N2))

>  <Sequence string>
LEESHPGIF

>  <Study target>
HLA-B*44:02

>  <Kd>
≥ 20 µM

$$$$

----------
Target: HLA-B*07:02
Test: IEDB peptide-MHC binding, purified MHC/competitive/fluorescence; bounds were set here for any values at or beyond the usual limits of such assays
Conditions: source organism: Vaccinia virus WR
Readout: IC50

>  <Sequence string>
LPWTKISET

>  <Study target>
HLA-B*07:02

>  <Readout value>
≥ 81.6 µM

$$$$

----------
Biological target: HLA-A*02:01
Assay: IEDB peptide-MHC binding, purified MHC/direct/fluorescence; filed as Kd, often an IC50 or EC50 that approximates it; bounds were set here for any values at or beyond the usual limits of such assays
Conditions: source organism: Vibrio parahaemolyticus
pKd: −log10 of the molar value.
Readout: pKd

>  <Sequence string>
QYDDLHKKF

>  <Readout value>
≤ 4.70

$$$$
>  <Sequence string>
VFMDNAFKK

>  <Readout value>
≤ 4.70

$$$$
>  <Sequence string>
ASEELMDKY

>  <Readout value>
≤ 4.70

$$$$

----------
Molecular target: HLA-A*24:02
Test: IEDB peptide-MHC binding, purified MHC/competitive/radioactivity; filed as Kd, often an IC50 or EC50 that approximates it; bounds were set here for any values at or beyond the usual limits of such assays
Conditions: source organism: Mammarenavirus brazilense
pKd: −log10 of the molar value.
Readout: pKd

>  <Sequence string>
NYPYLFEEHL

>  <Study target>
HLA-A*24:02

>  <Readout value>
6.01

$$$$

----------
Molecular target: HLA-A*32:01
Experiment: IEDB peptide-MHC binding, purified MHC/competitive/radioactivity; filed as Kd, often an IC50 or EC50 that approximates it; bounds were set here for any values at or beyond the usual limits of such assays
Details: source organism: Vaccinia virus WR
pKd: −log10 of the molar value.
The entries below come with measured pKd values attached.

>  <Sequence string>
LLYFKVFGI

>  <Censoring qualifier>
≤

>  <pKd>
4.43

$$$$
>  <Sequence string>
SLNALFVML

>  <Censoring qualifier>
=

>  <pKd>
5.91

$$$$
>  <Sequence string>
AIMMILSTI

>  <Censoring qualifier>
=

>  <pKd>
8.61

$$$$
>  <Sequence string>
RTSFAFQAI

>  <Censoring qualifier>
=

>  <pKd>
8.42

$$$$
>  <Sequence string>
MVRLPYKDA

>  <Censoring qualifier>
≤

>  <pKd>
4.11

$$$$
>  <Sequence string>
RTENFVLSI

>  <Censoring qualifier>
=

>  <pKd>
8.79

$$$$
>  <Sequence string>
EKTQYTNDF

>  <Censoring qualifier>
≤

>  <pKd>
4.11

$$$$
>  <Sequence string>
KTMTTVYIL

>  <Censoring qualifier>
=

>  <pKd>
7.86

$$$$
>  <Sequence string>
IIIPLSVSI

>  <Censoring qualifier>
=

>  <pKd>
7.16

$$$$
>  <Sequence string>
GTNGISNGI

>  <Censoring qualifier>
=

>  <pKd>
7.70

$$$$
>  <Sequence string>
LINFLLRSI

>  <Censoring qualifier>
=

>  <pKd>
6.60

$$$$
>  <Sequence string>
STINICLPY

>  <Censoring qualifier>
=

>  <pKd>
7.50

$$$$
>  <Sequence string>
ITNTEINSF

>  <Censoring qualifier>
=

>  <pKd>
6.38

$$$$
>  <Sequence string>
MAMFYAHAL

>  <Censoring qualifier>
=

>  <pKd>
4.90

$$$$
>  <Sequence string>
KMDNGTLEF

>  <Censoring qualifier>
=

>  <pKd>
9.03

$$$$
>  <Sequence string>
EQKLRPNSF

>  <Censoring qualifier>
=

>  <pKd>
4.91

$$$$
